Test system: P388
experimental protocol: Cytotoxicity against mouse P388 cells after 3 days by MTT assay
Type: functional, cell-based
conditions used: P388, 72 h

- smiles code: "CN[C@H]1[C@@H](OC)C[C@H](O[C@H]2CC[C@@]3(C)[C@@H](CC[C@@H]4[C@@H]3CC[C@]3(C)[C@@H](C(C)=O)CC[C@]43O)C2)O[C@@H]1C"
  IC50 / µg/mL: 4.2
- smiles code: "CO[C@H]1C[C@H](O[C@H]2CC[C@@]3(C)[C@@H](CC[C@@H]4[C@@H]3CC[C@]3(C)[C@@H](C(C)=O)CC[C@]43O)C2)O[C@H](C)[C@H]1N"
  IC50 / µg/mL: 4
- smiles code: "CO[C@H]1C[C@H](O[C@H]2CC[C@@]3(C)[C@@H](CC[C@@H]4[C@@H]3CC[C@]3(C)[C@H](C(C)=O)CC[C@]43O)C2)O[C@H](C)[C@H]1N"
  IC50 / µg/mL: 10.5
- smiles code: "CN[C@H]1[C@@H](OC)C[C@H](O[C@H]2CC[C@@]3(C)[C@@H](CC[C@@H]4[C@@H]3CC[C@]3(C)[C@H](C(C)=O)CC[C@]43O)C2)O[C@@H]1C"
  IC50 / µg/mL: 17
- smiles code: "CC(=O)[C@H]1CC[C@H]2[C@@H]3CC=C4C[C@H](N)CC[C@]4(C)[C@H]3CC[C@]12C"
  IC50 / µg/mL: 0.91
